Target: T1, human CD73 (Homo sapiens, UniProt P21589)
T1 construct: expressed in transfected cells; stably transfected in method 5.1)
T1 sequence (P21589 27-549): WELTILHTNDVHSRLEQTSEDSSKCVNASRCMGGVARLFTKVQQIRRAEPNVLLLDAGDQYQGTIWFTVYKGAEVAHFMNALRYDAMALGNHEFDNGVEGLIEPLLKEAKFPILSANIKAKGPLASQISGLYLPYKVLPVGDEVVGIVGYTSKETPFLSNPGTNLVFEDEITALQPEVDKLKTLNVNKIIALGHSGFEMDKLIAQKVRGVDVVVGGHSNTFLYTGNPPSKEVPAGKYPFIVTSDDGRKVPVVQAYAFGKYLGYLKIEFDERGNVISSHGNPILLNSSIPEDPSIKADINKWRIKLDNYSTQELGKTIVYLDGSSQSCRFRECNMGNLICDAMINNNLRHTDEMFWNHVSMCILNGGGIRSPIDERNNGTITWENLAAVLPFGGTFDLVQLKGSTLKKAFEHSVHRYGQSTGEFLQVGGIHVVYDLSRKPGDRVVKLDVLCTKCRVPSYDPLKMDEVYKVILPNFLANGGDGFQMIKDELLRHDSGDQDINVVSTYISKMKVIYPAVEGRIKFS
Assay: Flow cytometry binding of rabbit IgG hcAbs to human CD73-transfected HEK cells
Conditions: family representative clone; h = binds human CD73, m = binds mouse CD73

| molecule | specificity |
| --- | --- |
| SB116: CD73-specific alpaca VHH clone, family 3, SEQ ID NO:81; tested as rabbit or human IgG hcAb (antibody, left off: a dimerising Fc or GST, tested as rabbit or human IgG hcAb) heavy: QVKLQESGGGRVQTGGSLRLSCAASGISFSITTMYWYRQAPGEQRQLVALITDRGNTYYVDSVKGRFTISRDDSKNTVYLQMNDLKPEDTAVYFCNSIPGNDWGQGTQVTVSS | h + m |
